biological target: T1, c-MET extracellular domain (ECD)/Fc chimera (human, UniProt P08581 25-932); assay: binding ELISA on c-MET ECD/Fc, NiNTA-pure
T1 construct: Bought (R&D Systems, carrier free); also called c-MET ECD/Fc; c-MET-ECD/Fc fusion; not shown: immunoglobulin Fc domain
T1 sequence (P08581 25-932, change not shown): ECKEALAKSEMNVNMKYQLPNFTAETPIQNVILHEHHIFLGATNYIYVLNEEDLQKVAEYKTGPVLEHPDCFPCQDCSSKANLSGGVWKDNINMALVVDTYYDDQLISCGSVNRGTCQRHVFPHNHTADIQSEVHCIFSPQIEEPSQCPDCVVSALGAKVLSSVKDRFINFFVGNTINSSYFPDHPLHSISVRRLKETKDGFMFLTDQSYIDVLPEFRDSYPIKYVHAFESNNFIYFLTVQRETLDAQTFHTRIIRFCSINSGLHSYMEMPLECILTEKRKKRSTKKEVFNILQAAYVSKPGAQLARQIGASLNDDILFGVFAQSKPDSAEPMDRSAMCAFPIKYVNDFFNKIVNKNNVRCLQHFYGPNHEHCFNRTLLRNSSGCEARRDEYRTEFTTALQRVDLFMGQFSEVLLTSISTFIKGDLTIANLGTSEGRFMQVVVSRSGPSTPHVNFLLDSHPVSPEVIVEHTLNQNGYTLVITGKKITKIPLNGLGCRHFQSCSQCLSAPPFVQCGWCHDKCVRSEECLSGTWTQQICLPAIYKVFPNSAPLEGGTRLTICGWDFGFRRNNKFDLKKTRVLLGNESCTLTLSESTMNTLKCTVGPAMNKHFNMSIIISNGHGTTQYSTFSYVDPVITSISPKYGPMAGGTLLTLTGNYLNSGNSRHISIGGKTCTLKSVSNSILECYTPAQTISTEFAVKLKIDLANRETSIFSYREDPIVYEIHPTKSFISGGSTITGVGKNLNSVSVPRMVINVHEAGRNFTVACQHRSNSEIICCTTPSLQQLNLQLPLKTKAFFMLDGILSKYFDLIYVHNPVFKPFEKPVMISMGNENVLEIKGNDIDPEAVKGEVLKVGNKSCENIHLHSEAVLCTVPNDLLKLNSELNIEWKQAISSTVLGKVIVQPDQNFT
Would you kindly list Kd for each of these binders?
One number for each entry, in nM.

Please review the following examples before continuing.
[
  {
    "binder": "CVSNEFTCRSTKRCVPQEWVCDGVNDCEDGSDETGCPKHTSLQ (designed binder, Assayed protein also bears HA and 6His tags; also called C382) [Anti-c-MET Avimer monomer M21]",
    "Kd (nM)": 116
  },
  {
    "binder": "CVSNEFTCRSTKRCVPQEWVCDGVNDCEDGSDETGCPKHTSLQ (designed binder, Assayed protein also bears HA and 6His tags; also called C399) [Anti-c-MET Avimer monomer M38]",
    "Kd (nM)": 95
  }
]

Short answer for CEADEFRCRSTGRCISVDWRCDGVSDCEDSSDEESCESTAPTSLQ (designed binder, Assayed protein also bears HA and 6His tags; also called C381) [Anti-c-MET Avimer monomer M20] : Kd was 158
